System: CbCln3 +/+ GFP-LC3 cerebellar neuronal cells
Assay: fraction of GFP-LC3-positive cells (≥5 vesicles/cell); higher = more autophagosome accumulation
Over roughly 1,700 compounds, “fraction of GFP-LC3-positive cells (≥5 vesicles/cell)” has its median near 0.058; the highest 2% begin near 0.59. Many of the other results were omitted from the sample, so the highest values are more common in it than they were.
# if value of fraction of GFP-LC3-positive cells reaches 0.05, tag yes; if it stays below, tag no

| compound | category-label |
| --- | --- |
| O=C(O)c1cc(N(Cc2ccccc2O)Cc2cc(O)ccc2O)ccc1O | no |
| CC/C=C\C/C=C\C/C=C\C/C=C\C=C\C(O)CCCC(=O)O (racemic) | yes |
| CC(C)(Oc1ccc(C2CC2(Cl)Cl)cc1)C(=O)O (stereo unspecified) [Ciprofibrate] | no |
| Cl.c1ccc(CN(CC2=NCCN2)c2ccccc2)cc1 [Antazoline hydrochloride] | no |
| COc1cc(/C=C/C(=O)N2CCC=CC2=O)cc(OC)c1OC | yes |
| Cc1nccn1CC1CCc2c(c3ccccc3n2C)C1=O.Cl (stereo unspecified) [Ondansetron Hydrochloride] | no |
| O=C(CCCCC(=O)Nc1c(I)cc(I)c(C(=O)O)c1I)Nc1c(I)cc(I)c(C(=O)O)c1I [Iodipamide] | yes |
| CC(C)(Sc1cc(C(C)(C)C)c(O)c(C(C)(C)C)c1)Sc1cc(C(C)(C)C)c(O)c(C(C)(C)C)c1 | no |
| CC/C=C\C/C=C\C/C=C\C/C=C\C/C=C\C/C=C\CCC(=O)O [Docosahexaenoic acid (22:6 N-3)] | yes |
| CC/C=C\C/C=C\C/C=C\C/C=C\C/C=C\C/C=C\CCC(=O)O [Docosahexaenoic acid (22:6 n-3)] | yes |
| COC(=O)[C@H]1[C@H]2C[C@@H]3c4[nH]c5cc(OC)ccc5c4CCN3C[C@H]2C[C@@H](OC(=O)/C=C/c2cc(OC)c(OC)c(OC)c2)[C@@H]1OC | yes |
| CS(=O)(=O)c1ccc([C@@H](O)[C@@H](CO)NC(=O)C(Cl)Cl)cc1 | no |
| C[N+](C)(C)CCCCCC[N+](C)(C)C.O.O.[Br-].[Br-] [Hexamethonium dibromide dihydrate] | no |
| COc1cc(C(=O)OCCCN2CCCN(CCCOC(=O)c3cc(OC)c(OC)c(OC)c3)CC2)cc(OC)c1OC.Cl.Cl [Dilazep dihydrochloride] | no |

---

Examples of compounds with documented fraction of GFP-LC3-positive cells follow.
Tested on: CbCln3 +/+ GFP-LC3 cerebellar neuronal cells
Assay: fraction of GFP-LC3-positive cells (≥5 vesicles/cell); higher = more autophagosome accumulation
Whole data set: some 1,700 compounds, median “fraction of GFP-LC3-positive cells (≥5 vesicles/cell)” near 0.058, cut for the highest 2% near 0.59. Shown is part of a subset that was picked to be rich in the highest values.

| compound | assayed-system | fraction of GFP-LC3-positive cells |
| --- | --- | --- |
| O=C1Cc2c([nH]c3ccc(Br)cc23)-c2ccccc2N1 | CbCln3 +/+ GFP-LC3 cerebellar neuronal cells | 0.0413 |
| C1COC(NC(C2CC2)C2CC2)=N1.C1COC(NC(C2CC2)C2CC2)=N1.O=C(O)/C=C/C(=O)O [Rilmenidine hemifumarate] | CbCln3 +/+ GFP-LC3 cerebellar neuronal cells | 0.0609 |
| CCCCC/C=C\C/C=C\CCCCCCCC(N)=O | CbCln3 +/+ GFP-LC3 cerebellar neuronal cells | 0.0698 |
| CC[C@]12CCCN3CCc4c(n(c5ccccc45)[C@](O)(C(=O)OC)C1)[C@@H]32 [Epivincamine] | CbCln3 +/+ GFP-LC3 cerebellar neuronal cells | 0.0608 |
| Cc1ccc(Cl)c(Nc2ccccc2C(=O)[O-])c1Cl.O.[Na+] [Meclofenamic acid sodium salt monohydrate] | CbCln3 +/+ GFP-LC3 cerebellar neuronal cells | 0.0498 |
| CNCCC=C1c2ccccc2CCc2ccccc21.Cl [Nortriptyline hydrochloride] | CbCln3 +/+ GFP-LC3 cerebellar neuronal cells | 0.0533 |
| CC(C)(C)NC[C@H](O)COc1nsnc1N1CCOCC1.O=C(O)/C=C\C(=O)O [Timolol maleate salt] | CbCln3 +/+ GFP-LC3 cerebellar neuronal cells | 0.0791 |
| Cc1[nH]c(=O)c(C#N)cc1-c1ccncc1 | CbCln3 +/+ GFP-LC3 cerebellar neuronal cells | 0.0445 |

---

Tested on: CbCln3 +/+ GFP-LC3 cerebellar neuronal cells
Assay: fraction of GFP-LC3-positive cells (≥5 vesicles/cell); higher = more autophagosome accumulation
Over roughly 1,700 compounds, “fraction of GFP-LC3-positive cells (≥5 vesicles/cell)” has its median near 0.058; the highest 2% begin near 0.59. Only a selection was taken, and the highest values are over-represented in it overall.
Label Criterion not met if fraction of GFP-LC3-positive cells falls below 0.06; label Criterion met in every other case.

| compound | category-label |
| --- | --- |
| CS(=O)(=O)Nc1ccc([N+](=O)[O-])cc1Oc1ccccc1 [Nimesulide] | Criterion not met |
| CC(=O)S[C@@H]1CC2=CC(=O)CC[C@]2(C)[C@H]2CC[C@@]3(C)[C@@H](CC[C@@]34CCC(=O)O4)[C@H]12 | Criterion not met |
| Cc1ccc(S(=O)(=O)N[C@@H](Cc2ccccc2)C(=O)CCl)cc1 | Criterion met |
| C[C@]12CCC(=O)C=C1CC[C@@H]1[C@@H]2[C@@H](O)C[C@@]2(C)[C@H]1CC[C@]2(O)C(=O)CO [Hydrocortisone base] | Criterion not met |
| Nc1nc(=O)c2c([nH]1)NCC(CNc1ccc(C(=O)N[C@@H](CCC(=O)[O-])C(=O)[O-])cc1)N2C=O.[Ca+2] (stereo not given in full) [Folinic acid calcium salt] | Criterion not met |
| COc1cc2nc(N3CCN(C(=O)c4ccco4)CC3)nc(N)c2cc1OC | Criterion met |
| C[N+](C)(C)CCOC(N)=O.[Cl-] | Criterion met |
| CCCCCCCC/C=C\CCCCCCCC(=O)OC[C@@H](O)COP(=O)(O)O | Criterion not met |
| CCCCCCCCCCCCCCCCOCC(CO)OC(C)=O (stereo not given) | Criterion not met |
| CCCCC[C@H](O)CC(=O)CCc1ccc(O)c(OC)c1 | Criterion not met |
| CC(=O)OCC(=O)[C@@]1(OC(C)=O)[C@@H](C)C[C@H]2[C@@H]3C[C@H](F)C4=CC(=O)C=C[C@]4(C)[C@@]3(F)[C@@H](O)C[C@@]21C [Diflorasone Diacetate] | Criterion met |
| CCCCNC(=O)NS(=O)(=O)c1ccc(C)cc1 | Criterion not met |
| CC[C@H]1[C@@H]2C=C[C@@H]3[C@H]4C/C=C\C(=O)NCCC[C@@H]5NC(=O)C(=C5O)C(=O)CC[C@@H]4C[C@@H]3[C@H]2C[C@H]1C | Criterion met |
| FC(F)(F)c1ccccc1-n1ccnc1 | Criterion not met |
| Nc1ccc(C(=O)NCC(=O)O)cc1 | Criterion met |
| CCCCC[C@H](O)/C=C/[C@H]1C(=O)C[C@H](O)[C@@H]1C/C=C\CCCC(=O)O | Criterion not met |
| COc1ccc2cc(C(C)C(=O)O)ccc2c1 (stereo not given) | Criterion not met |
| O=C(O)CCC(=O)c1ccc(-c2ccccc2)cc1 | Criterion met |
| Cn1cnc2c(NCc3ccccc3)nc(NCCO)nc21 | Criterion met |
| CCCCCCCCCCCCCCCCOCC(CO)OC(C)=O (stereo not given) [1-Hexadecyl-2-O-acetyl-glycerol] | Criterion met |
| CCCCOc1cc(C(=O)OCCN(CC)CC)ccc1N.Cl [Benoxinate hydrochloride] | Criterion not met |
| CCCCCCCC/C=C\CCCCCCCC(N)=O | Criterion not met |
| CCCCC/C=C/C/C=C/CCCCCCCCCCC(=O)O [12(Z), 15(Z)-Heneicosadienoic acid] | Criterion not met |
| CC(C)=CC[C@@H](O)C1=CC(=O)c2c(O)ccc(O)c2C1=O | Criterion met |
| CCCCCCCC/C=C\CCCCCCCC(=O)OC[C@@H](O)COP(=O)(O)O [Lysophosphatidic acid] | Criterion not met |
| CC(COc1ccccc1)N(CCCl)Cc1ccccc1.Cl (stereo not given) [Phenoxybenzamine hydrochloride] | Criterion met |
| CCN(CC)C(=O)N1CCN(C)CC1.O=C(O)CC(O)(CC(=O)O)C(=O)O [Diethylcarbamazine citrate] | Criterion not met |
| CCn1cc(C(=O)O)c(=O)c2cc(F)c(N3CCNCC3)nc21 | Criterion not met |
| COc1cc2nc(N3CCN(C(=O)C4CCCO4)CC3)nc(N)c2cc1OC.Cl (stereo not given) [Terazosin hydrochloride] | Criterion not met |
| C[C@@H]1C[C@H]2[C@@H]3CCC4=CC(=O)C=C[C@]4(C)[C@@]3(F)[C@@H](O)C[C@]2(C)[C@@]1(O)C(=O)CO | Criterion met |
| CCOc1ccc(Cc2nccc3cc(OCC)c(OCC)cc23)cc1OCC.Cl [Ethaverine hydrochloride] | Criterion not met |
| C[C@@H](O)[C@H]1C(=O)N2C(C(=O)O)=C(SCCNC=N)C[C@H]12 | Criterion not met |
| Cn1cc(C2=C(c3cn(CCCSC(=N)N)c4ccccc34)C(=O)NC2=O)c2ccccc21 | Criterion met |
| Nc1ccc(S(=O)(=O)Nc2ccnn2-c2ccccc2)cc1 | Criterion met |
